Origin of values: patent US20190202883A1

target: human GLP-1R (human, UniProt P43220 24-463); experiment: cell-based or functional assay
Square brackets hold non-standard residues; d marks the D form. Side chains are listed from the residue outwards. αMeF = C[C@](N)(Cc1ccccc1)C(=O)O; Iva = CC[C@](C)(N)C(=O)O; Oda = not defined here; Aib = CC(C)(N)C(=O)O
measurement.label: Agonist activity (EC50), Cre-luc reporter assay (nM)
Give bare numbers, in nM.

Record Agonist activity (EC50), Cre-luc reporter assay per entry; entries follow.
1. Me-Y[Aib]EGT[αMeF]TSDK([Gly-Gly-Gly-Gly-Pal])[Aib]I[Aib]LDKQRQ[Iva]EFVRHLLNK[Aib]TRQRY-NH2
2. Me-Y[Aib]EGT[αMeF]TSDK([Gly-Gly-Gly-Gly-Oda])[Aib]I[Aib]LDKQAQ[Iva]EFVRHLLNK[Aib]TRQRY-NH2 (reading uncertain; also: printed as Me-Tyr-Aib-Glu-Gly-Thr-αMePhe-Thr-Ser-Asp-Lys(-Gly-Gly-Gly-Gly-Oda)-Aib-Ile-Aib-Leu-Asp-Lys-Gln-Ala-Gln-Iva-Glu-Phe-Val-Arg-His-Leu-Leu-Asn-Lys-Aib-Thr-Arg-Gln-Arg-Tyr-NH2)
3. H-Y[Aib]EGT[αMeF]TSDK([Gly-Gly-Gly-Gly-Oda])SI[Aib]LDKQRQ[Iva]EFVRHLLNK[Aib]TRQRY-NH2 (reading uncertain; also: printed as H-Tyr-Aib-Glu-Gly-Thr-αMePhe-Thr-Ser-Asp-Lys(-Gly-Gly-Gly-Gly-Oda)-Ser-Ile-Aib-Leu-Asp-Lys-Gln-Arg-Gln-Iva-Glu-Phe-Val-Arg-His-Leu-Leu-Asn-Lys-Aib-Thr-Arg-Gln-Arg-Tyr-NH2)

Reply:
[0.083, 0.15, 0.47]
